# RUN DESCRIPTION: label from the status in PepcDB records
QUANTITY KIND: protein production

SEQUENCE CONTENT	QUANTITY KIND	VALUE REPORTED
MATEKLPPLERYIRMLELLTAFPDGLALSELSAMIELPKASAHRLIKTLQELELAATSSPGSATYVTGPRLRKLAFMSADAQWVVAILRPFLRELTQEMGETAFVARLEGASVRTIAFEAPETPWRGFILPGYEMHPNAAASAKAILAFQDAATLKRALREPFERLTPQTNLSKERLLEEYAAIRQSGVATCIGEIDEGLAAVAVPIEVGGAAGLYSLGLTGPMNRVMALGVERAAERMMAYAARMASGLSAGLSAESARAAGLS	protein production	failed
MASLAAVVRALLRRESQRATGYALREWTMLTARHLPYLQGQLTLGRIAAVGHLQRSTLGRSEWHTSSAPLFGEGRGRWHWGLSTSDVVDGSDHEHHSTETGGRELPSFKTGELGSDVDGDRAALEAWLAQIRDETSGWPELSLDALRDELDEELEGDDDDNDDDDDETYENEELLKALQEAVNRHRTPVVALVSGRVVHLRRTAAPKRSPRAGRVPRNEPQTTSRDTTKADANDNECT	protein production	not failed
DLDGLLQRTVERARDMLDADSAFLLLATDDETELEVRASTGLPSARQRFARVPVDAGPGRYGSARMPAVHDDLTAVPGAVPLLSGTGMRSVVTVPLKVEGRLTGSLGVAAESPSRYSNEEALRLQFAADRIALAVESA	protein production	failed
MISRRTFALAAVASVLLGGTFVGAKAGLSYLPPLLFVALRFDIAAVVLLGYVVVTRSRDELLPRTRGDVLGILSTGLFALGLANALIFVGQQSATSAVAAIIFSLNPILTPVFAAILLSDERLSARGGLGMVIGLLGVGLVVSPDPAMLLSGGIGKLILFAGAASAALGSVLIRWSGGGLSSTVRTAWALPVAAALCHALSIGMGESAATAVWSPTAIAALLYVGIFAGAIAYIAYFGLLDVTGAIQANLIFYVVPVVSTLGGWALLGEAITPTAVAGFLTIFTGFVVLGSESVDIRALLPATTDEGDTVSESLGIADEQRGFESD	protein production	failed
MIRHTVVFTLKHASHSLEEKRFLVDAKKILSAIRGVTHFEQLRQISPKIDYHFGFSMEFADQAAYTRYNDHPDHVAFVRDRWVPEVEKFLEIDYVPLGSVV	protein production	not failed
MQETMLDLRTVYECNRCLGCKTLHPQVGIINLENPSLEEDAVKFEFYAVLLIEDCPGGCCCCGRKYYDYSNATMVFLTPGEIFRMSKENTLPDKGYLLAFHPDLLFRTSLKNHIKNYTFFHYRKEEALHLSRRETEKVTCCLSNIEDELHHPIDTHSSIILSRHIELLLDYCTRYYERQFITRENKNKALLENMERLFVEYIASGRLQGGKLPTSGYMAGELDLSVAYFDDLLKFETGKTLEEYLQLKRLDIARHMLLQDGHTPAAVARKLGYPNVQCFSVLFKKITGVAPSDYRLSQN	protein production	not failed

* * *

# RUN DESCRIPTION: label from the status in PepcDB records

SEQUENCE CONTENT	protein production
MSPDLIPHQKSLSPSYLVFCDVDETLIRCKSGPEFLRHYFEFRHGAEGARRTEELLADLYARLARGLPRDEANREYHRAWRRCPVDEVEDRARHWYRERSRAADFYITATVDALRRHRAEGGAVALVSGSFPPLLPLVAEEVGAQYVLGARLERCGRVLTGELLGLPAIGDGKRVLARELLARHPHIDPADCYAYGDHPSDLPMLHMVGHATLVTPDGTHAPVKPAALT	failed
MNLHTKTWVQRLPVPIDVAWDFFSQPGNLARITPPEMMLKAEGGNAGTAIYEGMKLNFVLYPFMMIPVRWTTEIMKVSKPDFFEDRQLSGPYEQWYHRHLFRDIEGGTEMTDIVEYALPFDLFGEVVEALIVGPRLDEVFEYRRCRVAEILGLEHHHHHH	failed
MGSRDLISSLPDEILGKVLSLLPTKRAASTAVLSKRWNNLPALVDKLDINDAIGGPGGFPEFIDKTLALLTNSTTIKRTSLNNEFQYGESQVNTWIRSFLERGCLQLYLNAQSLYTIDTEFFTSNTLVELTITGGFSPDGLLPPGGVFFPKLKTLSLVLMTFVDSDMYELFISGCPLLEEFLLRNDEIEIPPVWNALVSSPSIKRLTIVHHFPNYREAHDGCWFRTPNLVYLDYSSYVPDWYEVDLGSLVEARLDLRSWERLRDEKAGGYGDCDSVYDDEEYPDDPILGDVTNLVTGLSNIKTLHLSPDSLEVSFPYLLLFQFEVHSSLQSLLIV	failed
MGWLFLLLAVASEAFSHVALKATDGLSHLIPNVIVITGHLGAFYFLSQAMKTLPVGIAHASWAGLAIIAVTLISSAFYHQHLDNKIWLGIGFISIGIAIINLSSTPHVH	failed
MDFRALALSLLLWLVPLWACANDQLDKLTQQVYQYPTKALAQITELEKQQQTDNTSNIDKLRLSILKCQNLLQLGENEAAINLAQMGEAHAKQLKLDQARPYFFNCQADAYLNYDNIQDALPLLDSAITLARRYQQPQALIDALRLRGQLDTNTDNFSSAIEDLRIAIDIYPDIHTQTQNWIWPPEAVGSPHNS	failed
MSDMGVIVKTNARALIPLIGVFGSYIILHGHLTPGGGFQGGATIVGTALLFLIAFGVDEAKKRINKDLYSALEGIGGLVFLGAAMLGLSVAFFYNILWHKGPLFNGRPGTLLSAGFLPIMNLGVGLKVFTGLVSAVFALALFRRWKE	failed
MKKIEIFDPAMCCPTGLCGTNINPELMRIAVVIESLKKQGIIVTRHNLRDEPQVYVSNKTVNDFLQKHGADALPITLVDGEIAVSQTYPTTKQMSEWTGVNLD	not failed
MSSNVPADMINLRLILVSGKTKEFLFSPNDSASDIAKHVYDNWPMDWEEEQVSSPNILRLIYQGRFLHGNVTLGALKLPFGKTTVMHLVARETLPEPNSQGQRNREKTGESNCCVIL	not failed
MSEQNEKEGAVGSLERGLLIIRVLLDAPGPMSLAELAQELALGPSTVHRLLGTLTKLGQVVREPRGKRYLAAPQVLASLSFQHPITLVRLACRSAIEELRERTGETSAFVLFIGYERLVQDFVIGQRLLSPNYQTWLRSPMHGSASGKLLLSTVPENNWVDLIGHEPYQAHTPSTITTYEEMVAEIQAIRRQHYCVSKNEGYEGVSAFGYPVVVLGKTVGCITLTVESASLNESREAFLIQEMLRCVKSIQAVSGSLKLLHDWLF	failed
MVSTLGSDTFTSISAHDLHGKLGNIHLIDVRENDDFKEGHIPTSRNIPMDILLKEPEKYINKTDEYYIVCQAGVKSEKTCKELWSKGYKVINIKDGTDSYKQPLEHHHHHH	failed
MNLIWFLIIGGLAGWLAGLIMKGKGFGVLANIGIGIVGSFIGGFLFGLLQLSAHGAIGRLVTATVGAVLLLAIVNKIKKG	failed
MSRVKNVVELLETKGVDALYLTKKTNVNYISGFPDEEAYAVICKDGNFLVTDSRYMELAEKVCKDFEIINWHNFDRSVAKAVKSVCDKVGIKKLGFERTNIVFDKYEELKNLIEKDNGELIPTENIVETLRYVKDKDEIKNTRKACEIADKALEELIPHIKAGVSEIELATKLEYFMKMNGAQNIGFETILISGAKTSLLHGKPSDKIIEKGDFVLIDYGAMYNGYISDTTRTFIVGGASEKQLEIYNLVKEAQNVGVENMKAGVHATIPDAEIRKVVKKYEDYYYQGIGHGVGRDVHEEPFIGNYGDKIIEEGCIITMEPGIYFPGWGGVRIEDTVLITKNGPERLTKFPKDLMILDK	failed
MKALHFGAGNIGRGFIGKLLADAGIQLTFADVNQVVLDALNARHSYQVHVVGETEQVDTVSGVNAVSSIGDDVVDLIAQVDLVTTAVGPVVLERIAPAIAKGLVKRKEQGNESPLNIIACENMVRGTTQLKGHVMNALPEDAKAWVEEHVGFVDSAVDRIVPPSASATNDPLEVTVETFSEWIVDKTQFKGALPNIPGMELTDNLMAFVERKLFTLNTGHAITAYLGKLAGHQTIRDAILDEKIRAVVKGAMEESGAVLIKRYGFDADKHAAYIQKILGRFENPYLKDDVERVGRQPLRKLSAGDRLIKPLLGTLEYSLPHKNLIQGIAGAMHFRSEDDPQAQELAALIADKGPQAALAQISGLDANSEVVSEAVTAYKAMQ	not failed
MISVCIATYNGEKYLAEQLDSILLQVSEEDELIISDDGSTDHTLEILRTYAANYPQIQLLQGPGQGVIANFAFALTHTKGEVIFLADQDDVWLPNKVTTVTEYFETHPDIQVVISDLKIVDADLQVTNPSYFKFRKVKPGFWRNAIKSGYIGAGMAFRQEMKNVILPIPPEVPMHDMWIGLLAARKKQTGLIKEPLVLYRRHGANVSPIITKTSFQQKLNWRVNLLKALHQRLKEQRLEHHHHHH	not failed

Reference for the values: a protein production outcome set (Wang et al. 2014)
